Quick reference: self-splicing fitness (ln) of the listed items.
- experimentDescription: self-splicing fitness, log relative to wild type (ln ratio); higher = more splicing; Tetrahymena group I intron in knt gene, E. coli kanamycin selection, DiMSum; sequences stand for … in CUCUCU…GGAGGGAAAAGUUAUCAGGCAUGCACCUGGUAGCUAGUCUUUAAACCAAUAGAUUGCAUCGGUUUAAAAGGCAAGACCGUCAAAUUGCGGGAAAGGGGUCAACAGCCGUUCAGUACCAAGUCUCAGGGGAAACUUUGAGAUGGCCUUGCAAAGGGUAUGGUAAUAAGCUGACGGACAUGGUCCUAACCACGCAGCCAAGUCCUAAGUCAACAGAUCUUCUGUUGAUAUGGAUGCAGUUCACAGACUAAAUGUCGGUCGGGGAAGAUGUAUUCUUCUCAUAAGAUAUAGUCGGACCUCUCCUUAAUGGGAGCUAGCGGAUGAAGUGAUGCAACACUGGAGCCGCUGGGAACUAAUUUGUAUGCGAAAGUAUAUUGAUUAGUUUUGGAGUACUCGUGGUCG;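 also: selection with 25 µg/mL kanamycin versus none on LB agar overnight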
- testContext: 30 °C

>  <querySequence>
AUCCAGCAAUAUUACGAUUG

>  <self-splicing fitness (ln)>
-4.83

$$$$
>  <querySequence>
GUCGAGCAAUAUUACGAGUC

>  <self-splicing fitness (ln)>
-3.73

$$$$
>  <querySequence>
AGGUAGCAAUAUUACGCAAC

>  <self-splicing fitness (ln)>
-3.73

$$$$
>  <querySequence>
CUGUAGCAAUAUUACGCGAA

>  <self-splicing fitness (ln)>
-1.86

$$$$
>  <querySequence>
CGGUAGCAAUAUUACGAGAG

>  <self-splicing fitness (ln)>
-3.4

$$$$
>  <querySequence>
AAGCAGCAAUAUUACGGAGG

>  <self-splicing fitness (ln)>
-3.79

$$$$
>  <querySequence>
ACUUAGCAAUAUUACGCCUC

>  <self-splicing fitness (ln)>
-2.19

$$$$
>  <querySequence>
GGGUAGCAAUAUUACGUGAC

>  <self-splicing fitness (ln)>
-2.07

$$$$

----------
- experimentDescription: self-splicing fitness, log relative to wild type (ln ratio); higher = more splicing; Tetrahymena group I intron in knt gene, E. coli kanamycin selection, DiMSum; sequences stand for … in CUCUCU…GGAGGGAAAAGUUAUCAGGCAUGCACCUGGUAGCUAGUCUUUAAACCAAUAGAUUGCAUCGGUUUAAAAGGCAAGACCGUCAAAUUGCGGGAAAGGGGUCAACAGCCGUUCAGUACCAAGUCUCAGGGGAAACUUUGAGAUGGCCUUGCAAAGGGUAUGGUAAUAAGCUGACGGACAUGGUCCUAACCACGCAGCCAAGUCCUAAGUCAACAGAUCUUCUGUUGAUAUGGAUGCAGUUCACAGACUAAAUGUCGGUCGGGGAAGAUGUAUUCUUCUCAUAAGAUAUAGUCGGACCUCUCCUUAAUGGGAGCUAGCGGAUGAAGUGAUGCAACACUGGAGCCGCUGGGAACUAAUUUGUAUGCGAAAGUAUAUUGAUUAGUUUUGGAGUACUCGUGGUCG
- testContext: 37 °C

>  <querySequence>
AAGCAGCAAUAUUACGAGCG

>  <self-splicing fitness (ln)>
-0.344

$$$$
>  <querySequence>
UAUAAGCAAUAUUACGCCAU

>  <self-splicing fitness (ln)>
-2.11

$$$$
>  <querySequence>
UAAAAGCAAUAUUACGAGAU

>  <self-splicing fitness (ln)>
-2.98

$$$$
>  <querySequence>
CGGGAGCAAUAUUACGGCAU

>  <self-splicing fitness (ln)>
-1.8

$$$$
>  <querySequence>
UAAGAGCAAUAUUACGUAUG

>  <self-splicing fitness (ln)>
-2.47

$$$$
>  <querySequence>
GUGCAGCAAUAUUACGCGGG

>  <self-splicing fitness (ln)>
-1.03

$$$$
>  <querySequence>
AUGCAGCAAUAUUACGGUUU

>  <self-splicing fitness (ln)>
-0.427

$$$$
>  <querySequence>
GCUAAGCAAUAUUACGUAAA

>  <self-splicing fitness (ln)>
-0.32

$$$$
>  <querySequence>
ACCAAGCAAUAUUACGAGAU

>  <self-splicing fitness (ln)>
-2.65

$$$$
>  <querySequence>
ACACAGCAAUAUUACGGGAG

>  <self-splicing fitness (ln)>
-2.15

$$$$
>  <querySequence>
GCGGAGCAAUAUUACGUAUG

>  <self-splicing fitness (ln)>
-2.58

$$$$
>  <querySequence>
AAAUAGCAAUAUUACGGCGC

>  <self-splicing fitness (ln)>
-0.73

$$$$
